# MEASURED ON: UniProt Q9GZQ4
# ASSAY: Calcium mobilization assay, HEK-NMU2 cells
# CONDITION SET: HEK293 cells expressing NMU2 receptor, NA = not active
Where a SMILES comes first, the peptide text is derived from it. [ ]: non-standard residue; d: D form. The star is where a group is joined. Palmitoyl = CCCCCCCCCCCCCCCC(=O)*; Aib = CC(C)(N)C(=O)O
QUANTITY MEASURED: EC50 (nM)
Just the number please, in nM, no unit attached.

Noted for CCCCCCCCCCCCCCCC(=O)NC(C)(C)C(=O)N[C@@H](Cc1ccccc1)C(=O)N[C@@H](CC(C)C)C(=O)N[C@@H](Cc1ccccc1)C(=O)N[C@@H](CCCNC(=N)N)C(=O)N1CCC[C@H]1C(=O)N[C@@H](CCCNC(=N)N)C(=O)N[C@@H](CC(N)=O)C(N)=O [Peptide M3, Pal-Aib-FL-Phe-Arg-Pro-R-Asn] (Palmitoyl-[Aib]FLFRPRN-NH2) : its EC50 reads 170

Kindly review the next compound as well.
Record CCCCCCCCCCCCCCCCNC(=O)CNCC(=O)NC(C)(C)C(=O)N[C@@H](Cc1ccccc1)C(=O)N[C@@H](CC(C)C)C(=O)N[C@@H](Cc1ccccc1)C(=O)N[C@@H](CCCNC(=N)N)C(=O)N1CCC[C@H]1C(=O)N[C@@H](CCCNC(=N)N)C(=O)N[C@@H](CC(N)=O)C(N)=O [Peptide M4A, Ida^NHPal-Aib-FL-Phe-Arg-Pro-R-Asn] , field EC50: 6.46

* * *

Collected pEC50 values appear next to each entry.
# MEASURED ON: NMUR2 (neuromedin U 2 receptor) (Homo sapiens)
# Sequence (Q9GZQ4 whole entry): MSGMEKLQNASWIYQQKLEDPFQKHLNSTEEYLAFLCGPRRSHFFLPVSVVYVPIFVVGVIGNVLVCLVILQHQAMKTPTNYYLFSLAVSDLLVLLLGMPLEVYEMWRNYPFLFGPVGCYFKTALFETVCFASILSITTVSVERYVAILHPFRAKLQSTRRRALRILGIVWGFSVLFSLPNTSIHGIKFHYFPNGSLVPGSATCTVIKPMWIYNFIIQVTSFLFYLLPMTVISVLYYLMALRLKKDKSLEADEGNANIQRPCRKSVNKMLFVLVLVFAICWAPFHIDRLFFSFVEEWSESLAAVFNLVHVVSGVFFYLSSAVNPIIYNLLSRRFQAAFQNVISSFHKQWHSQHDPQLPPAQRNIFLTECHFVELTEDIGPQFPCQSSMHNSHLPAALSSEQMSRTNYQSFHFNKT
# ASSAY: Calcium mobilization assay, HEK-NMU2 cells
# CONDITION SET: HEK293 cells expressing NMU2 receptor, NA = not active
Where a SMILES comes first, the peptide text is derived from it. [ ]: non-standard residue; d: D form. The star is where a group is joined. PEG12 = NCCOCCOCCOCCOCCOCCOCCOCCOCCOCCOCCOCCOCCC(=O)O; X1 = CCCCCCCCCCCCCCCCN(CCCCCCCCCCCCCCCC)CCCCCC(=O)*; Oic = O=C(O)[C@@H]1C[C@@H]2CCCC[C@@H]2N1; Palmitoyl = CCCCCCCCCCCCCCCC(=O)*; Aib = CC(C)(N)C(=O)O; Ahx = NCCCCCC(=O)O
// pEC50 is dimensionless: -log10 of concentration (M)

For this molecule ( CC(C)C[C@H](NC(=O)[C@H](Cc1ccccc1)NC(=O)C(C)(C)N)C(=O)N[C@@H](Cc1ccccc1)C(=O)N[C@@H](CCCNC(=N)N)C(=O)N1CCC[C@H]1C(=O)N[C@@H](CCCNC(=N)N)C(=O)N[C@@H](CC(N)=O)C(=O)NC(C)(C)C(N)=O [Peptide M5, Aib-FL-Phe-Arg-Pro-R-Asn-Aib] (H-[Aib]FLFRPRN[Aib]-NH2) ), measured pEC50 is 7.30

Further cases:
The molecule identified as CCCCCCCCCCCCCCCC(=O)NCCOCCOCCOCCOCCOCCOCCOCCOCCOCCOCCOCCOCCC(=O)NC(C)(C)C(=O)N[C@@H](Cc1ccccc1)C(=O)N[C@@H](CC(C)C)C(=O)N[C@@H](Cc1ccccc1)C(=O)N[C@@H](CCCNC(=N)N)C(=O)N1CCC[C@H]1C(=O)N[C@@H](CCCNC(=N)N)C(=O)N[C@@H](CC(N)=O)C(N)=O [Peptide M4, Pal-dPEG12-Aib-FL-Phe-Arg-Pro-R-Asn] ({Palmitoyl-PEG12}-[Aib]FLFRPRN-NH2) registered its pEC50 at 8.77

Quick note, pEC50 for CCCCCCCCCCCCCCCCN(CCCCCCCCCCCCCCCC)CCCCCC(=O)NC(C)(C)C(=O)N[C@@H](Cc1ccccc1)C(=O)N[C@@H](CC(C)C)C(=O)N[C@@H](Cc1ccccc1)C(=O)N[C@@H](CCCNC(=N)N)C(=O)N1CCC[C@H]1C(=O)N[C@@H](CCCNC(=N)N)C(=O)N[C@@H](CC(N)=O)C(N)=O [Peptide M4-C16, (c16)2-Ahx-Aib-FL-Phe-Arg-Pro-R-Asn] (X1-[Aib]FLFRPRN-NH2) landed at 6.13

// recorded pEC50 for CC(C)C[C@H](NC(=O)[C@H](Cc1ccccc1)NC(=O)CCCCCNC(=O)[C@@H](N)CS)C(=O)N[C@@H](Cc1ccccc1)C(=O)N[C@@H](CCCNC(=N)N)C(=O)N1[C@H](C(=O)N[C@@H](CCCNC(=N)N)C(=O)N[C@@H](CC(N)=O)C(=O)NCCCCCC(=O)N[C@@H](CS)C(N)=O)C[C@@H]2CCCC[C@@H]21 [NM9, C-Ahx-FL-Phe-Arg-Oic-R-Asn-Ahx-C] (H-C[Ahx]FLFR[Oic]RN[Ahx]C-NH2) : 6.15

# credit: patent US10155798B2
